tested on: Burkholderia thailandensis; assay: Antibacterial activity against Burkholderia thailandensis E264 under muller hinton medium by CLSI protocol based microdilution method; type: functional
Overview of recorded MIC for various compounds
Unit µg/mL implied. Number only.

# example entries with known answers
1) O=C(O)c1cn(C2CC2)c2cc(N3CCN(C(=O)c4ccc(O)c(O)c4)CC3)c(F)cc2c1=O: 128
2) CC(OC(=O)c1cc(=O)c(O)c[nH]1)OC(=O)N1CCN(c2cc3c(cc2F)c(=O)c(C(=O)O)cn3C2CC2)CC1 (configuration not stated): 4
3) O=C(O)c1cn(C2CC2)c2cc(N3CCN(C(=O)c4cccc(O)c4O)CC3)c(F)cc2c1=O: 16
4) CC(OC(=O)c1cccc(O)c1O)OC(=O)N1CCN(c2cc3c(cc2F)c(=O)c(C(=O)O)cn3C2CC2)CC1 (configuration not stated): 32
5) CC(C)(O/N=C(\C(=O)N[C@@H]1C(=O)N2C(C(=O)[O-])=C(C[n+]3ccccc3)CS[C@H]12)c1csc(N)n1)C(=O)O: 4

Switching to the query record.
Quick one: give measured MIC for `O=C(O)c1cn(C2CC2)c2cc(N3CCN(C(=O)c4ccc(O)c(O)c4Cl)CC3)c(F)cc2c1=O`
128

* * *

test system: Pseudomonas aeruginosa; experiment: Antibacterial activity against Pseudomonas aeruginosa AM85 under 1 uM FeCl3 medium by CLSI protocol based microdilution method; format: functional
Listed compounds paired with reported MIC

The examples below pair each entry with its known result.
1. CC(OC(=O)c1cccc(O)c1O)OC(=O)N1CCN(c2cc3c(cc2F)c(=O)c(C(=O)O)cn3C2CC2)CC1 (centres undefined): > 128 µg/mL
2. O=C(O)c1cn(C2CC2)c2cc(N3CCN(C(=O)c4ccc(O)c(O)c4)CC3)c(F)cc2c1=O: > 128 µg/mL
3. CC(C)(O/N=C(\C(=O)N[C@@H]1C(=O)N2C(C(=O)[O-])=C(C[n+]3ccccc3)CS[C@H]12)c1csc(N)n1)C(=O)O [CEFTAZIDIME]: 4 µg/mL

// below: MIC requested for another compound
Please list MIC recorded for the compound `O=C(O)c1cn(C2CC2)c2cc(N3CCN(C(=O)c4cc(=O)c(O)c[nH]4)CC3)c(F)cc2c1=O`
> 128 µg/mL

* * *

test system: Pseudomonas aeruginosa; assay: Antibacterial activity against Pseudomonas aeruginosa PAD07 under muller hinton medium by CLSI protocol based microdilution method; format: functional
Below, each entry is listed alongside its reported MIC.
Numeric only. Scale: µg/mL

1. O=C(O)c1cn(C2CC2)c2cc(N3CCN(C(=O)c4cccc(O)c4O)CC3)c(F)cc2c1=O: 8
2. CC(OC(=O)c1cccc(O)c1O)OC(=O)N1CCN(c2cc3c(cc2F)c(=O)c(C(=O)O)cn3C2CC2)CC1 (stereo not drawn): 0.25

Now for another entry.
In one line, give reported MIC of the entry `O=C(O)c1cn(C2CC2)c2cc(N3CCN(C(=O)c4cc(=O)c(O)c[nH]4)CC3)c(F)cc2c1=O` .
32

* * *

system: Pseudomonas aeruginosa; experiment: Antibacterial activity against Pseudomonas aeruginosa PAD07 under muller hinton medium by CLSI protocol based microdilution method; format: functional
Known MIC of a selection of compounds
Note: unit µg/mL is implicit; provide only the numeric part.

1. CC(C)(O/N=C(\C(=O)N[C@@H]1C(=O)N2C(C(=O)[O-])=C(C[n+]3ccccc3)CS[C@H]12)c1csc(N)n1)C(=O)O [CEFTAZIDIME]: 1

Fill in MIC for CC(OC(=O)c1cc(=O)c(O)c[nH]1)OC(=O)N1CCN(c2cc3c(cc2F)c(=O)c(C(=O)O)cn3C2CC2)CC1 (centres undefined) tested with Pseudomonas aeruginosa.
0.25

Give MIC; test system Pseudomonas aeruginosa; compound `O=C(O)c1cn(C2CC2)c2cc(N3CCN(C(=O)c4ccc(O)c(O)c4Cl)CC3)c(F)cc2c1=O`
32

Fill in: MIC on Pseudomonas aeruginosa, entry `O=C(O)c1cn(C2CC2)c2cc(N3CCN(C(=O)c4ccc(O)c(O)c4)CC3)c(F)cc2c1=O`
8
